System: 817829-284-R-J1-PDC complex spheroids, viability
Test: Anticancer human tumor 817829-284-R-J1-PDC patient-derived colon adenocarcinoma cell line growth inhibition [CLK]
Conditions: second compound 1 µM; first compound 0.0316 µM; active compounds read low
We label by threshold. Values of viability, T/C strictly beneath 10% are Y. Values of 10% and up are N.

Quick check: does Cn1ncnc1[C@H]1c2n[nH]c(=O)c3cc(F)cc(c23)N[C@@H]1c1ccc(F)cc1 + CN1CCN(c2cc(C(=O)Nc3cc4cc(-c5cnn(C)c5)ccc4cn3)ccn2)CC1 have viability, T/C under 10%?
Y

# iterate: COc1ccc([C@@H](O)c2cc(-c3ncnc4cc(N5CCOCC5)ccc34)c(F)cc2Cl)nn1 + CN1CCN(c2cc(C(=O)Nc3cc4cc(-c5cnn(C)c5)ccc4cn3)ccn2)CC1
Y

# iterate: Nc1ccn(C2OC(CO)C(O)C2(F)F)c(=O)n1 (stereo not given) + CNC(=O)c1ccc(Nc2nc(OC3CCCC3)c3c(-c4ccc5nc(C)oc5c4)c[nH]c3n2)c(OC)c1
Y

# iterate: CCCS(=O)(=O)Nc1ccc(F)c(C(=O)c2c[nH]c3ncc(-c4ccc(Cl)cc4)cc23)c1F + CNC(=O)c1ccc(Nc2nc(OC3CCCC3)c3c(-c4ccc5nc(C)oc5c4)c[nH]c3n2)c(OC)c1
N

# iterate: COc1c(OCCCN2CCOCC2)ccc2c3n(c(=NC(=O)c4cnc(N)nc4)nc12)CCN3 + CNC(=O)c1ccc(Nc2nc(OC3CCCC3)c3c(-c4ccc5nc(C)oc5c4)c[nH]c3n2)c(OC)c1
N

# iterate: COC1C=CCC(C)C(C)S(=O)(=O)NC(=O)c2ccc3c(c2)N(CC2CCC21)CC1(CCCc2cc(Cl)ccc21)CO3 (stereo not given) + CN1CCN(c2cc(C(=O)Nc3cc4cc(-c5cnn(C)c5)ccc4cn3)ccn2)CC1
Y

# iterate: CC(Nc1ccc2c(c1)OCCn1cc(N3C(=O)OCC3C(F)F)nc1-2)C(N)=O (stereo not given) + CN1CCN(c2cc(C(=O)Nc3cc4cc(-c5cnn(C)c5)ccc4cn3)ccn2)CC1
Y

# iterate: Nc1ccn(C2OC(CO)C(O)C2(F)F)c(=O)n1 (stereo not given) + CN1CCN(c2cc(C(=O)Nc3cc4cc(-c5cnn(C)c5)ccc4cn3)ccn2)CC1
Y

# iterate: C=C(F)C(=O)N1CCN(c2nc(OCC3CCCN3C)nc3c2CCN(c2cccc4cccc(Cl)c24)C3)CC1CC#N (stereo not given) + CNC(=O)c1ccc(Nc2nc(OC3CCCC3)c3c(-c4ccc5nc(C)oc5c4)c[nH]c3n2)c(OC)c1
N

# iterate: CC(=O)O[C@H]1C(=O)[C@@]2(C)[C@H]([C@H](OC(=O)c3ccccc3)[C@]3(O)C[C@H](OC(=O)[C@H](O)[C@@H](NC(=O)c4ccccc4)c4ccccc4)C(C)=C1C3(C)C)[C@]1(OC(C)=O)CO[C@@H]1C[C@@H]2O + CNC(=O)c1ccc(Nc2nc(OC3CCCC3)c3c(-c4ccc5nc(C)oc5c4)c[nH]c3n2)c(OC)c1
N

----------
Tested on: 817829-284-R-J1-PDC complex spheroids, viability
Assay: Anticancer human tumor 817829-284-R-J1-PDC cell line growth inhibition [CLK]; active = viability on the fitted dose curve at most 10% of control; inactive = the rest;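 also: spheroids exposed to the agents for seven days before readout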
Conditions: second compound 1 µM; first compound 1 µM
The reply should be one of these categories: true for active, false for inactive

Could you check what this test reported for CCc1c2c(nc3ccc(O)cc13)-c1cc3c(c(=O)n1C2)COC(=O)[C@]3(O)CC + CNC(=O)c1ccc(Nc2nc(OC3CCCC3)c3c(-c4ccc5nc(C)oc5c4)c[nH]c3n2)c(OC)c1 ?
true

# iterate: CC1COCCN1c1cc(C2(S(C)(=N)=O)CC2)nc(-c2ccnc3[nH]ccc23)n1 (centres undefined) + CN1CCN(c2cc(C(=O)Nc3cc4cc(-c5cnn(C)c5)ccc4cn3)ccn2)CC1
true

# iterate: CC(=O)O[C@H]1C(=O)[C@@]2(C)[C@H]([C@H](OC(=O)c3ccccc3)[C@]3(O)C[C@H](OC(=O)[C@H](O)[C@@H](NC(=O)c4ccccc4)c4ccccc4)C(C)=C1C3(C)C)[C@]1(OC(C)=O)CO[C@@H]1C[C@@H]2O + CN1CCN(c2cc(C(=O)Nc3cc4cc(-c5cnn(C)c5)ccc4cn3)ccn2)CC1
true

# iterate: Nc1ccn(C2OC(CO)C(O)C2(F)F)c(=O)n1 (centres undefined) + CNC(=O)c1ccc(Nc2nc(OC3CCCC3)c3c(-c4ccc5nc(C)oc5c4)c[nH]c3n2)c(OC)c1
true

# iterate: COC1C=CCC(C)C(C)S(=O)(=O)NC(=O)c2ccc3c(c2)N(CC2CCC21)CC1(CCCc2cc(Cl)ccc21)CO3 (centres undefined) + CN1CCN(c2cc(C(=O)Nc3cc4cc(-c5cnn(C)c5)ccc4cn3)ccn2)CC1
true

# iterate: CC(CO)NC(=O)c1cc(-c2ccc(Cl)cc2)nn(-c2cnn(C)c2)c1=O (centres undefined) + CNC(=O)c1ccc(Nc2nc(OC3CCCC3)c3c(-c4ccc5nc(C)oc5c4)c[nH]c3n2)c(OC)c1
false

# iterate: COc1ccc([C@@H](O)c2cc(-c3ncnc4cc(N5CCOCC5)ccc34)c(F)cc2Cl)nn1 + CN1CCN(c2cc(C(=O)Nc3cc4cc(-c5cnn(C)c5)ccc4cn3)ccn2)CC1
true

# iterate: CC(=O)O[C@H]1C(=O)[C@@]2(C)[C@H]([C@H](OC(=O)c3ccccc3)[C@]3(O)C[C@H](OC(=O)[C@H](O)[C@@H](NC(=O)c4ccccc4)c4ccccc4)C(C)=C1C3(C)C)[C@]1(OC(C)=O)CO[C@@H]1C[C@@H]2O + CNC(=O)c1ccc(Nc2nc(OC3CCCC3)c3c(-c4ccc5nc(C)oc5c4)c[nH]c3n2)c(OC)c1
false

# iterate: CCc1c2c(nc3ccc(O)cc13)-c1cc3c(c(=O)n1C2)COC(=O)[C@]3(O)CC + CN1CCN(c2cc(C(=O)Nc3cc4cc(-c5cnn(C)c5)ccc4cn3)ccn2)CC1
true
